system: Streptococcus pneumoniae; assay: Antibacterial activity against Penicillin-resistant Streptococcus pneumoniae after 24 hrs by microdilution method; type: functional
Assign MIC to each entry below.
# number only, unit µg/mL dropped from output

Record for `CC(C)(C)[C@H](NC(=O)[C@H](CC1CCCC1)CN(O)C=O)C(=O)N1CCC(NCc2ccccn2)CC1` under target or system Streptococcus pneumoniae: MIC reported as 1.6

Record for `CC(=O)NC[C@H]1CN(c2ccc(N3CCOCC3)c(F)c2)C(=O)O1` under target or system Streptococcus pneumoniae: MIC reported as 0.8

Record for `Cc1ccc(CNC2CCN(C(=O)[C@@H](NC(=O)[C@H](CC3CCCC3)CN(O)C=O)C(C)(C)C)CC2)cc1` under target or system Streptococcus pneumoniae: MIC reported as 0.4

Record for `CC(C)(C)[C@H](NC(=O)[C@H](CC1CCCC1)CN(O)C=O)C(=O)N1CCC(Nc2ccc3cn[nH]c3c2)CC1` under target or system Streptococcus pneumoniae: MIC reported as 0.4

Record for `CN[C@@H](CC(C)C)C(=O)N[C@H]1C(=O)N[C@@H](CC(N)=O)C(=O)N[C@H]2C(=O)N[C@H]3C(=O)N[C@H](C(=O)N[C@@H](C(=O)O)c4cc(O)cc(O)c4-c4cc3ccc4O)[C@H](O)c3ccc(c(Cl)c3)Oc3cc2cc(c3O[C@H]2O[C@@H](CO)[C@H](O)[C@@H](O)[C@@H]2O[C@@H]2C[C@@](C)(N)[C@@H](O)[C@@H](C)O2)Oc2ccc(cc2Cl)[C@H]1O` under target or system Streptococcus pneumoniae: MIC reported as 0.8

Record for `CC(C)(C)[C@H](NC(=O)[C@H](CC1CCCC1)CN(O)C=O)C(=O)N1CCC(NCc2ccc3c(c2)OCO3)CC1` under target or system Streptococcus pneumoniae: MIC reported as 1.6

Record for `COC(=O)c1ccc(CNC2CCN(C(=O)[C@@H](NC(=O)[C@H](CC3CCCC3)CN(O)C=O)C(C)(C)C)CC2)cc1` under target or system Streptococcus pneumoniae: MIC reported as 0.8

Record for `CC(C)(C)[C@H](NC(=O)[C@H](CC1CCCC1)CN(O)C=O)C(=O)N1CCC(Nc2ccccc2)CC1` under target or system Streptococcus pneumoniae: MIC reported as 0.8

Record for `CC(C)(C)[C@H](NC(=O)[C@H](CC1CCCC1)CN(O)C=O)C(=O)N1CCC(NCc2ccc(O)c(O)c2)CC1` under target or system Streptococcus pneumoniae: MIC reported as 12.5

Record for `CC(C)(C)[C@H](NC(=O)[C@H](CC1CCCC1)CN(O)C=O)C(=O)N1CCC(NCc2ccccc2)CC1` under target or system Streptococcus pneumoniae: MIC reported as 0.8

Record for `CC(C)(C)[C@H](NC(=O)[C@H](CC1CCCC1)CN(O)C=O)C(=O)N1CCC(NCc2nc3ccccc3[nH]2)CC1` under target or system Streptococcus pneumoniae: MIC reported as 1.6

Record for `CC(C)(C)[C@H](NC(=O)[C@H](CC1CCCC1)CN(O)C=O)C(=O)N1CCC(NCc2ccc(O)cc2)CC1` under target or system Streptococcus pneumoniae: MIC reported as 3.1

Record for `CC(C)(C)[C@H](NC(=O)[C@H](CC1CCCC1)CN(O)C=O)C(=O)N1CCC(N)CC1` under target or system Streptococcus pneumoniae: MIC reported as 1.6

Record for `COc1ccc(CNC2CCN(C(=O)[C@@H](NC(=O)[C@H](CC3CCCC3)CN(O)C=O)C(C)(C)C)CC2)cc1` under target or system Streptococcus pneumoniae: MIC reported as 0.8
